From: ChEMBL document CHEMBL4689842

Field: Population Pyknosed Nuclei (%). Provide a value for each of the compounds that follow.
- Test system: U2OS
- testMethodNotes: Multiplex assay against U2OS
- Format: toxicity, cell-based
- protocolConditions: human, 12 h, 10 µM, compound concentration 10 uM, replicate 1
One number for each entry, in %.

The examples below pair each entry with its known result.
| compound | Population Pyknosed Nuclei (%) |
| --- | --- |
| CC(C)(C)c1cnc(CSc2cnc(NC(=O)C3CCNCC3)s2)o1 | 19 |
| Nc1ccc(C(=O)Nc2cccc(-c3nc(N4CCOCC4)c4oc5ncccc5c4n3)c2)cn1 | 18 |

Please report Population Pyknosed Nuclei (%) for every entry that follows.
1. Cc1cn(-c2cc(NC(=O)c3ccc4c(c3)CN(c3cncnc3)C[C@@H]4C)cc(C(F)(F)F)c2)cn1
2. O=C(O)c1ccc2c(c1)nc(Nc1cccc(Cl)c1)c1ccncc12
3. CC(=O)O[C@H]1C(=O)[C@@]2(C)[C@H]([C@H](OC(=O)c3ccccc3)[C@]3(O)C[C@H](OC(=O)[C@H](O)[C@@H](NC(=O)c4ccccc4)c4ccccc4)C(C)=C1C3(C)C)[C@]1(OC(C)=O)CO[C@@H]1C[C@@H]2O
4. CNC(=O)c1cc(Oc2ccc(NC(=O)Nc3cc(C(C)(C)C)nn3-c3ccc4ncccc4c3)c(F)c2)ccn1
5. CCC(=O)O[C@]1(C(=O)SCF)[C@H](C)C[C@H]2[C@@H]3C[C@H](F)C4=CC(=O)C=C[C@]4(C)[C@@]3(F)[C@@H](O)C[C@@]21C [FLUTICASONE PROPIONATE]

Result:
1: 7; 2: 7; 3: 5; 4: 20; 5: 13
